Measured CTLA4 MFI at 33.3 nM values are reported for all entries that follow.
# Target or system: huCTLA4 (Homo sapiens, UniProt P16410)
# Sequence (P16410 36-223): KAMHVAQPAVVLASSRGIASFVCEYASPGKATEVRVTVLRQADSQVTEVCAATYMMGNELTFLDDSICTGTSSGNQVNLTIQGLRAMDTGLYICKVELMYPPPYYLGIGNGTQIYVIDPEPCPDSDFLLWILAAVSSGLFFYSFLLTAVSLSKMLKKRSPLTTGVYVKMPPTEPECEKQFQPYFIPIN
# Assay remarks: Flow binding to CHO cells stably expressing CTLA4
# Parameters: huCTLA4 and huPD-L1, full-length mammalian surface expression constructs were generated; expressed in transfected cells; host or cells: CHO cells, lentiviral transduction, sorted to >98% purity
# Protocol conditions: Table E20; CHO cells stably expressing CTLA4; 33.3 nM
No unit in the answer, only the number.

See these solved cases before continuing.
Molecule	CTLA4 MFI at 33.3 nM
H18Y/A26E/M47L/D90G (protein) VIHVTKEVKEVATLSCGYNVSVEELEQTRIYWQKEKKMVLTMMSGDLNIWPEYKNRTIFDITNNLSIVILALRPSDEGTYECVVLKYEKGAFKREHLAEVTLSVKAD	23485
H18Y/A26E/V68M/D90G (protein) VIHVTKEVKEVATLSCGYNVSVEELEQTRIYWQKEKKMVLTMMSGDMNIWPEYKNRTIFDITNNLSIMILALRPSDEGTYECVVLKYEKGAFKREHLAEVTLSVKAD	25794
H18Y/A26E/E35D/V68M (protein) VIHVTKEVKEVATLSCGYNVSVEELEQTRIYWQKDKKMVLTMMSGDMNIWPEYKNRTIFDITNNLSIMILALRPSDEGTYECVVLKYEKDAFKREHLAEVTLSVKAD	20929
E35D/M47L/V68M/A71G (protein) VIHVTKEVKEVATLSCGHNVSVEELAQTRIYWQKDKKMVLTMMSGDLNIWPEYKNRTIFDITNNLSIMILGLRPSDEGTYECVVLKYEKDAFKREHLAEVTLSVKAD	24656

Let us move to another entry and its CTLA4 MFI at 33.3 nM.
Enquiry: Fill in the blank: the reported CTLA4 MFI at 33.3 nM of A26E/M47L/A71G/D90G (protein) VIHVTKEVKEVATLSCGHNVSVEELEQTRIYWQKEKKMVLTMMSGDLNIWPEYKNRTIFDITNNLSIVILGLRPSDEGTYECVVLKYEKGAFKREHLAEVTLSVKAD is ____.
Return: 21955
